# Target Or System: Kappa-type opioid receptor (Homo sapiens)
# Sequence (P41145 whole entry): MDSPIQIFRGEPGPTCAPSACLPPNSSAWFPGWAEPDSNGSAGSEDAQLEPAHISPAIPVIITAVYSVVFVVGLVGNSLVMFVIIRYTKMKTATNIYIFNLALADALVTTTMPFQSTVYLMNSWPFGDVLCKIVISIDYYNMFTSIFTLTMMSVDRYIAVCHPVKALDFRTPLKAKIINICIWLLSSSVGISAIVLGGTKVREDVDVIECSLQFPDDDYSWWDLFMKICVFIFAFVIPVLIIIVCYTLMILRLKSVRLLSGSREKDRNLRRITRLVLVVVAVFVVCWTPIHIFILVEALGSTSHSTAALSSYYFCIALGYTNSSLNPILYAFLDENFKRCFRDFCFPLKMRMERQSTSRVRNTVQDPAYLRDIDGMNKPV
# Method Notes: Agonist activity at human kappa opioid receptor expressed in CHO cells assessed as stimulation of […]GTPgammaS binding after 60 mins by scintillation counting
pEC50: −log10 of the molar value.
Entry flag: t if pEC50 reaches 9; f if it does not.

Some solved cases for reference:
# Structure Smiles String, Category
measured = [
    ("Oc1cccc(CNc2ccc3c(c2)[C@@]24CCCC[C@H]2[C@@H](C3)N(CC2CC2)CC4)c1", "f"),
    ("Oc1ccc(CNc2ccc3c(c2)[C@@]24CCCC[C@H]2[C@@H](C3)N(CC2CCC2)CC4)cc1", "f"),
    ("COc1cccc(CNc2ccc3c(c2)[C@@]24CCCC[C@H]2[C@@H](C3)N(CC2CC2)CC4)c1", "t"),
    ("c1cc2c(cc1CNc1ccc3c(c1)[C@@]14CCCC[C@H]1[C@@H](C3)N(CC1CC1)CC4)OCO2", "t"),
    ("COc1cccc(CNc2ccc3c(c2)[C@@]24CCCC[C@H]2[C@@H](C3)N(CC2CCC2)CC4)c1", "f"),
    ("COc1ccc(CNc2ccc3c(c2)[C@@]24CCCC[C@H]2[C@@H](C3)N(CC2CC2)CC4)cc1", "f"),
]

Please find the next compound below.
## Input Determine whether measured pEC50 meets or exceeds 9 for Oc1ccccc1CNc1ccc2c(c1)[C@@]13CCCC[C@H]1[C@@H](C2)N(CC1CCC1)CC3
## Output f

* * *

Entries with their measured Ki, system Mu-type opioid receptor (Homo sapiens):

Worked examples, 5 compounds total:
# Structure Smiles String, Result
rows = [
    ("Oc1ccc(CNc2ccc3c(c2)[C@@]24CCCC[C@H]2[C@@H](C3)N(CC2CCC2)CC4)cc1", "0.35 nM"),
    ("CN(Cc1cccc(O)c1)c1ccc2c(c1)[C@@]13CCCC[C@H]1[C@@H](C2)N(CC1CCC1)CC3", "17 nM"),
    ("Oc1cccc(CNc2ccc3c(c2)C[C@@H]2[C@@H]4CCCC[C@]34CCN2CC2CC2)c1", "150 nM"),
    ("CN(Cc1ccc(O)cc1)c1ccc2c(c1)[C@@]13CCCC[C@H]1[C@@H](C2)N(CC1CCC1)CC3", "3.2 nM"),
    ("Oc1cccc(CNc2ccc3c(c2)[C@@]24CCCC[C@H]2[C@@H](C3)N(CC2CC2)CC4)c1", "0.16 nM"),
]

## Input Please list Ki recorded for the compound Oc1ccccc1CNc1ccc2c(c1)[C@@]13CCCC[C@H]1[C@@H](C2)N(CC1CC1)CC3
## Output 1.9 nM

## Input Please give measured Ki of the following entry: O=[N+]([O-])c1cccc(CNc2ccc3c(c2)[C@@]24CCCC[C@H]2[C@@H](C3)N(CC2CCC2)CC4)c1
## Output 0.43 nM

* * *

# Target Or System: Delta-type opioid receptor (Homo sapiens)
# Sequence (P41143 whole entry): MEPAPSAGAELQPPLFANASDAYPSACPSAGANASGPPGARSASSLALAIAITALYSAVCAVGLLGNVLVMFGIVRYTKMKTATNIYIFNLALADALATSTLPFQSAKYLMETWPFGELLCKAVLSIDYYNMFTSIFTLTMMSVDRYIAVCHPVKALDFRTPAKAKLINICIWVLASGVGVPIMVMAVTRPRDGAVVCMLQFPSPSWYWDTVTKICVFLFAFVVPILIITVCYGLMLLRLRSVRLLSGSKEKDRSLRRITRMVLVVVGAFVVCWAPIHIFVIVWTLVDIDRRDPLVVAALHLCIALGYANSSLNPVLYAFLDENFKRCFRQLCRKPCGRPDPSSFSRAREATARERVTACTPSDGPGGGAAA
# Method Notes: Displacement of [3H]-naltrindole from human delta opioid receptor expressed in CHO cells at 10 uM after 3 hrs by scintillation counting
# Assay type: cell-based
Entries and their measured inhibition follow.
Give the value in % but do not write % after it.

Look over these answered cases.
# Structure Smiles String, inhibition (%)
data = [
    ("CN1CC[C@]23c4c5ccc(NCc6ccc(O)cc6)c4O[C@H]2[C@@H](O)C=C[C@H]3[C@H]1C5", 19),
    ("COc1ccccc1CNc1ccc2c3c1O[C@H]1[C@@H](O)C=C[C@H]4[C@@H](C2)N(C)CC[C@@]341", 22),
    ("CN1CC[C@]23c4c5ccc(NCc6ccccc6O)c4O[C@H]2[C@@H](O)C=C[C@H]3[C@H]1C5", 27),
    ("COc1ccc2c3c1O[C@H]1C(=O)CC[C@H]4[C@@H](C2)N(C)CC[C@]314", 37),
    ("COc1ccc(CNc2ccc3c4c2O[C@H]2[C@@H](O)C=C[C@H]5[C@@H](C3)N(C)CC[C@@]452)cc1", 12),
    ("CN1CC[C@]23c4c5ccc(NCc6cccc(O)c6)c4O[C@H]2[C@@H](O)C=C[C@H]3[C@H]1C5", 31),
    ("Oc1cccc(CNc2ccc3c(c2)C[C@@H]2[C@@H]4CCCC[C@]34CCN2CC2CC2)c1", 46),
]

With those in mind, consider the next molecule.
## Input Please give measured inhibition of the following entry: COc1cccc(CNc2ccc3c4c2O[C@H]2[C@@H](O)C=C[C@H]5[C@@H](C3)N(C)CC[C@@]452)c1
## Output 33

* * *

# Target Or System: Mu-type opioid receptor (Homo sapiens, UniProt P35372)
# Sequence (P35372 whole entry): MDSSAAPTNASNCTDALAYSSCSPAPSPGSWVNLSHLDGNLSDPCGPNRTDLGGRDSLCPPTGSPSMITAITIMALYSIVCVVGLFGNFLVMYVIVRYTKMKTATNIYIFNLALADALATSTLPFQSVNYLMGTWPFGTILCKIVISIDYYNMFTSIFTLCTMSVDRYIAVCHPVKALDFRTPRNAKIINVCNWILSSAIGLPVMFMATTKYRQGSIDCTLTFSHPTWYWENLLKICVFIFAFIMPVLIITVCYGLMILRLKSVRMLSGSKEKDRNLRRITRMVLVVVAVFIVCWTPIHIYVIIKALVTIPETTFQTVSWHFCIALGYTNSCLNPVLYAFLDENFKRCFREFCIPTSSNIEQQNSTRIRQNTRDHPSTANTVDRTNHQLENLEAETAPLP
Metric Name: log10(Ki) (log10 of the value in nM)
Form field - Quantity: Ki; Unit: nM; Scale: log10

Here is how some molecules turned out for log10(Ki).
# Structure Smiles String, log10(Ki)
measured = [
    ("CN1CC[C@]23CCCC[C@H]2[C@H]1Cc1ccc(NCc2cccc(O)c2)cc13", -0.38),
    ("CN1CC[C@]23CCCC[C@H]2[C@H]1Cc1ccc(N)cc13", 0.90),
    ("c1cc2c(cc1CNc1ccc3c(c1)[C@@]14CCCC[C@H]1[C@@H](C3)N(CC1CCC1)CC4)OCO2", -0.47),
    ("CN1CC[C@]23c4c5ccc(NCc6cccc(O)c6)c4O[C@H]2[C@@H](O)C=C[C@H]3[C@H]1C5", 0.85),
    ("COc1cccc(CNc2ccc3c(c2)[C@@]24CCCC[C@H]2[C@@H](C3)N(CC2CCC2)CC4)c1", -0.16),
]

## Input Indicate its recorded log10(Ki); the molecule in question is Oc1ccc(CNc2ccc3c(c2)[C@@]24CCCC[C@H]2[C@@H](C3)N(CC2CC2)CC4)cc1
## Output -0.55

## Input For the molecule CN(Cc1ccc(Cl)cc1)c1ccc2c(c1)[C@@]13CCCC[C@H]1[C@@H](C2)N(CC1CCC1)CC3 , give its reported log10(Ki).
## Output 1.41

## Input Give log10(Ki) for the following molecule: Clc1ccc(CNc2ccc3c(c2)[C@@]24CCCC[C@H]2[C@@H](C3)N(CC2CCC2)CC4)cc1
## Output 0.23

* * *

# Species on record: Homo sapiens
# Method Notes: Selectivity index, ratio of inhibition of human kappa opioid receptor to inhibition of human mu opioid receptor
Metric Name: Selectivity ratio
Simply state the number, no unit and no words.

## Input In one line, give reported Selectivity ratio of the entry Oc1ccc(CNc2ccc3c(c2)[C@@]24CCCC[C@H]2[C@@H](C3)N(CC2CC2)CC4)cc1 .
## Output 44

## Input Provide measured Selectivity ratio value, entry: CN(Cc1ccc(O)cc1)c1ccc2c(c1)[C@@]13CCCC[C@H]1[C@@H](C2)N(CC1CCC1)CC3
## Output 170

## Input Tell me its Selectivity ratio given CN1CC[C@]23c4c5ccc(NCc6ccc(O)cc6)c4O[C@H]2[C@@H](O)C=C[C@H]3[C@H]1C5 as the entry.
## Output 230

* * *

# Method Notes: Displacement of [3H]-naltrindole from human delta opioid receptor expressed in CHO cells after 3 hrs by scintillation counting
Metric Name: pKi
By convention, pKi is the negative base-10 log of a molar concentration.

## Input Provide pKi value for the following molecule: CN1CC[C@]23CCCC[C@H]2[C@H]1Cc1ccc(N)cc13
## Output 5.82

* * *

# Target Or System: Mu-type opioid receptor (Homo sapiens, UniProt P35372)
# Method Notes: Agonist activity at human mu opioid receptor expressed in CHO cells assessed as stimulation of […]GTPgammaS binding after 60 mins by scintillation counting relative to control
# Format: functional, cell-based
# Emax annotations
Form entry: value (%) — number only.

Take a look at these entries with their results.
# Structure Smiles String, Readout Number
rows = [
    ("Oc1ccc(CNc2ccc3c(c2)[C@@]24CCCC[C@H]2[C@@H](C3)N(CC2CC2)CC4)cc1", 19),
    ("COc1ccc(CNc2ccc3c(c2)[C@@]24CCCC[C@H]2[C@@H](C3)N(CC2CCC2)CC4)cc1", 34),
]

## Input Answer with reported Emax of COc1cccc(CNc2ccc3c(c2)[C@@]24CCCC[C@H]2[C@@H](C3)N(CC2CC2)CC4)c1
## Output 23

## Input Look up and state reported Emax for O=[N+]([O-])c1cccc(CNc2ccc3c(c2)[C@@]24CCCC[C@H]2[C@@H](C3)N(CC2CCC2)CC4)c1
## Output 70

## Input Give me measured Emax, please, for this compound: Oc1ccc(CNc2ccc3c(c2)[C@@]24CCCC[C@H]2[C@@H](C3)N(CC2CCC2)CC4)cc1
## Output 38

## Input Give the reported Emax for this compound. Oc1ccccc1CNc1ccc2c(c1)[C@@]13CCCC[C@H]1[C@@H](C2)N(CC1CCC1)CC3
## Output 49

## Input Kindly indicate its recorded Emax. Item: c1cc2c(cc1CNc1ccc3c(c1)[C@@]14CCCC[C@H]1[C@@H](C3)N(CC1CCC1)CC4)OCO2
## Output 39

## Input State its Emax for this compound: Oc1ccccc1CNc1ccc2c(c1)[C@@]13CCCC[C@H]1[C@@H](C2)N(CC1CC1)CC3
## Output 44

## Input Let me know recorded Emax for Oc1cccc(CNc2ccc3c(c2)[C@@]24CCCC[C@H]2[C@@H](C3)N(CC2CC2)CC4)c1 , thanks.
## Output 27
